test: yeast display, Sf9 membrane polyspecificity reagent, FACS + sequencing; frameworks hold sequencing errors
parameterMeasured: polyreactivity (PSR sort gate)

- monomerSequence: "QVQLVESGGGLVQAGGSLRLSCAASGRTFGYYAMGWYRQAPGIERELVATITWGDGTTYYADSVKGRFTFSRDNAKNTVYLQMNILKPEDTAVYYCAVDRSSWWWDDYRYDYWGQGTQVTVSS"
  polyreactivity (PSR sort gate): "low polyreactivity"
- monomerSequence: "QVQLVESGGGLVQAGGSLRLSCAASGSIFIYYAMGWYRQAPGKERELVAAIDYSGDSTYYADSVKGRFTISRDNAKNTVYLQMNSLKPEDTAVYYCAVYYAGWGDYWGQGTQVTVSS"
  polyreactivity (PSR sort gate): "low polyreactivity"
- monomerSequence: "QVQLVESGGGLVQAGGSLRLSCAASGSTFYRYAKGRYRQPPGKERELVASITRNVGSTYYADSVKGRFTISRDNAKNTVYLQMKSVKPEDTAVYFCAAKSGSFVHGGYQTPVYGSDYWGQGSQVTVSS"
  polyreactivity (PSR sort gate): "high polyreactivity"
- monomerSequence: "QVQLVESGGGLVKAGCSLRLTCAASARTFRWYAMGWYRQAPGKERELVATISWSSGRTRYADSVKGRFTISRDNANNTVYLQMNSLKPEETAVYYCNADQWDKSYDYWGQGSQVTVSS"
  polyreactivity (PSR sort gate): "high polyreactivity"

Request: Return reported polyreactivity (PSR sort gate); argument: "QVQLVESGGGLVQAGGSLRLSCAASGSTYNVNAMGWARQAPGKERELVAAITSSGGSSNYADSVKGRFTISRDNAKNTVYLQMNSLKPEDTAVYYCAADAIFFSRLNLGYDYWGQGTQVTVSS"
Result: low polyreactivity

Request: Return reported polyreactivity (PSR sort gate); argument: "QVQLVESGGGLVQAGGSLRLSCAASGSIFAGNVMGWYRQAPGKERELVAAISRRGGRTYYADSVKGRFTISRDNAKNTVYLQMNSLKPEDTAVYYCAARRDPVLGNSDFWGQGTQVTVSS"
Result: high polyreactivity

Request: Return reported polyreactivity (PSR sort gate); argument: "QVQLVESGGGLVQAGGSLRLSCAASGSTIDTYAMGWYRLAPGKERELVAGISWSGGSTFYADSVKGRFTFSRDNAKNTVDLHMNSLKPEDTAVYYCAKQLWVGVKYDYWGQGTQVTVSS"
Result: low polyreactivity

Request: Return reported polyreactivity (PSR sort gate); argument: "QVQLVESGGGLVQAGGSLRLSCAASGSTFVPYAMGWYRQAPGKERELVATIRWRGDRTYYADSVKGRFTSSRDNAKKTVYLQMNSLKPEDTAVYYCNTAGWSFYSGRYDYWGQGTQVTVSS"
Result: high polyreactivity

Request: Return reported polyreactivity (PSR sort gate); argument: "QVQLVESGGGLVQAGGSLRLTCAASRIIFRKYAMGWYRQAPGKERELVAAISSSAGSTYYADSVKGRFTISRDNAKNTVYLQMNSLKPEDTAVYYCAADRHYTRYDYWGQGTQVTVSS"
Result: high polyreactivity

Request: Return reported polyreactivity (PSR sort gate); argument: "QVQLVESGGGIVQAGGSLRLSCAASGNILFSYAMGWYRQAPGKERELVAAISRSGGSTYYADSVKGRFTISRDNAKNTVYLQMNSLKPEDTAVYYCNAGVYYSYSVTEDYWGQGTQVTVSS"
Result: high polyreactivity

Request: Return reported polyreactivity (PSR sort gate); argument: "QVQLLESGGGLVQAGGSLRLSCAASGSIFGYYAMGWYRQAPGKERELVAAISVNGGRTYYADSVKWRFTISRDIAKNTVYLQMNMLKPEDTAVSYCAAELVDFITFRGDFYYWGQGTEVTVSS"
Result: high polyreactivity

Request: Return reported polyreactivity (PSR sort gate); argument: "QFQLVESGGGLVQAGGSLSLSCAASGSTFVWYAMGWYRPAPGKERELVAAINFGGTTYYADSVKGRFTISRDNAKNTVYLQMNSLKPEDNAVYYCATEYDYGYWYPDGWVIFDYWVQGTQVTVSS"
Result: low polyreactivity

Request: Return reported polyreactivity (PSR sort gate); argument: "QVHLVESWGGLVQAGGSLRLSCAASGRTFWKYAMGWYRQAPWKDRVLVAAITASGARTYYADSVKGRFSISRDNGKNTVYLQMNSLKPEDTSVYYCNAGSVSDRQMDYWGQGTQVTVSS"
Result: low polyreactivity
